Test system: Saccharomyces cerevisiae;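 also: PSI is a weighted mean of sequencing reads over stability bins, variants kept only with over 10 reads, mCherry proximal and sfGFP distal, peptide attached via GGGS linker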
assay remarks: protein stability index of tFT-peptide fusion (C-terminal peptide) (PSI (0-1 scale)); higher = more stable (slower turnover)
recorded conditions: genetic background: doa10 deletion; temperature: 30 C
So basically: protein stability index at 0.3 or higher? That is y. Lower than 0.3? That is n.

IGLSIWSVVSAL n
DMWYLLWRVCYI y
GVRCRLVIRVLG n
VYVLVFNMENIS y
PSTLVITVVITK n
FSRFPFVKLSLV n

Hello, I need to know if RWRLWVGWGVVG has measured protein stability index not below 0.3. Thanks!
y

Hello, I need to know if SCCGCGFGLLFC has measured protein stability index not below 0.3. Thanks!
y

Hello, I need to know if LVGVLLAVWSVV has measured protein stability index not below 0.3. Thanks!
n

Hello, I need to know if RSPVVVFAVLLF has measured protein stability index not below 0.3. Thanks!
y

Hello, I need to know if GVKSQLYSFVWF has measured protein stability index not below 0.3. Thanks!
y

Hello, I need to know if GRAVGLANFTIK has measured protein stability index not below 0.3. Thanks!
y

Hello, I need to know if DFHLPWPVALVW has measured protein stability index not below 0.3. Thanks!
n

Hello, I need to know if LQSVAFERGGPD has measured protein stability index not below 0.3. Thanks!
y
